Test: qHTS for differential inhibitors of proliferation of Plasmodium falciparum line W2 (AID 1883);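 further: parasites grown with compound for 72 h before lysis and staining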
Details: Plasmodium falciparum W2 proliferation inhibition; series mostly up to 28.7 µM
Records with an inconclusive call do not appear. The source made the active and inactive calls. The call rests on the fitted dose curve; in most records, active means well fitted curve in the direction sought with a large enough effect; inconclusive means small, poorly fitted or top-dose-only effect, or another doubt; inactive means no such curve, though single readings can be large or run the other way.
Respond using exactly one of the listed classes: 1 (active), -1 (inactive)

Illustrative cases are given below, each with its answer.
molecule	group-label
Cn1c(=O)[nH]c2ncn(C)c2c1=O	-1
CNc1ncnc2c1ncn2[C@H]1C[C@H](OP(=O)(O)O)[C@@H](COP(=O)(O)O)O1	-1
CC[C@H](NC(=O)c1c(C)c(-c2ccccc2)nc2ccccc12)c1ccccc1	1
CC1C(=O)N(C)C(=O)c2nc[nH]c21 (stereo unspecified)	-1
Nn1nnc2ccccc21	1

q: Outcome logged for NC(=Nc1ccccc1)NC(=O)c1nc(Cl)c(N)nc1N in this assay:
a: 1

q: What would you report for N#CC(C#N)=C(N)/C(C#N)=C/c1ccc(O)cc1 ?
a: -1

q: What would you report for O=C(O)CCC(=O)N1CCCC1C(=O)O (stereo unspecified) ?
a: -1

q: What would you report for COc1ccccc1N1CCN(CCCNc2c(C)c(=O)n(C)c(=O)n2C)CC1 ?
a: 1

q: What would you report for O=C1C2C=CC=CC2=NC(=S)N1CCN1CCC(=C(c2ccc(F)cc2)c2ccc(F)cc2)CC1 (stereo unspecified) ?
a: 1

q: What would you report for CCCCC[C@H](CC(=O)NO)C(=O)N[C@H](C(=O)N1CCC[C@H]1CO)C(C)C ?
a: 1

q: What would you report for CCN(CC)CCOC(=O)c1cc(Cl)c(N)cc1OC ?
a: -1

q: What would you report for O=C(O)/C=C/c1cnc[nH]1 ?
a: -1

q: What would you report for NCC(O)c1ccc(O)c(O)c1 (stereo unspecified) ?
a: 1

q: What would you report for NC/C=C\C(=O)O ?
a: -1

q: What would you report for Nc1ncnc2c1c(-c1ccc(Oc3ccccc3)cc1)cn2C1CCCC1 ?
a: 1

q: What would you report for O=c1ccc2c(OCCCCc3ccccc3)c3ccoc3cc2o1 ?
a: 1

q: What would you report for O=[N+]([O-])c1cccc2c(Br)[nH]nc12 ?
a: -1

q: What would you report for CN1C2CCC1CC(OC(c1ccccc1)c1ccccc1)C2 (stereo unspecified) ?
a: 1

q: What would you report for CC(=O)NCCc1c[nH]c2ccc(O)cc12 ?
a: -1

q: What would you report for N[C@@H](Cc1ccc(O)c(I)c1)C(=O)O ?
a: -1

q: What would you report for CN1CCN(c2nc3cc(C(F)(F)F)ccc3n3cccc23)CC1 ?
a: 1

###

Molecular target: ATPase family AAA domain-containing protein 5 (Homo sapiens) (UniProt Q96QE3)
Sequence (Q96QE3 whole entry, looked up, the tested form may be a part): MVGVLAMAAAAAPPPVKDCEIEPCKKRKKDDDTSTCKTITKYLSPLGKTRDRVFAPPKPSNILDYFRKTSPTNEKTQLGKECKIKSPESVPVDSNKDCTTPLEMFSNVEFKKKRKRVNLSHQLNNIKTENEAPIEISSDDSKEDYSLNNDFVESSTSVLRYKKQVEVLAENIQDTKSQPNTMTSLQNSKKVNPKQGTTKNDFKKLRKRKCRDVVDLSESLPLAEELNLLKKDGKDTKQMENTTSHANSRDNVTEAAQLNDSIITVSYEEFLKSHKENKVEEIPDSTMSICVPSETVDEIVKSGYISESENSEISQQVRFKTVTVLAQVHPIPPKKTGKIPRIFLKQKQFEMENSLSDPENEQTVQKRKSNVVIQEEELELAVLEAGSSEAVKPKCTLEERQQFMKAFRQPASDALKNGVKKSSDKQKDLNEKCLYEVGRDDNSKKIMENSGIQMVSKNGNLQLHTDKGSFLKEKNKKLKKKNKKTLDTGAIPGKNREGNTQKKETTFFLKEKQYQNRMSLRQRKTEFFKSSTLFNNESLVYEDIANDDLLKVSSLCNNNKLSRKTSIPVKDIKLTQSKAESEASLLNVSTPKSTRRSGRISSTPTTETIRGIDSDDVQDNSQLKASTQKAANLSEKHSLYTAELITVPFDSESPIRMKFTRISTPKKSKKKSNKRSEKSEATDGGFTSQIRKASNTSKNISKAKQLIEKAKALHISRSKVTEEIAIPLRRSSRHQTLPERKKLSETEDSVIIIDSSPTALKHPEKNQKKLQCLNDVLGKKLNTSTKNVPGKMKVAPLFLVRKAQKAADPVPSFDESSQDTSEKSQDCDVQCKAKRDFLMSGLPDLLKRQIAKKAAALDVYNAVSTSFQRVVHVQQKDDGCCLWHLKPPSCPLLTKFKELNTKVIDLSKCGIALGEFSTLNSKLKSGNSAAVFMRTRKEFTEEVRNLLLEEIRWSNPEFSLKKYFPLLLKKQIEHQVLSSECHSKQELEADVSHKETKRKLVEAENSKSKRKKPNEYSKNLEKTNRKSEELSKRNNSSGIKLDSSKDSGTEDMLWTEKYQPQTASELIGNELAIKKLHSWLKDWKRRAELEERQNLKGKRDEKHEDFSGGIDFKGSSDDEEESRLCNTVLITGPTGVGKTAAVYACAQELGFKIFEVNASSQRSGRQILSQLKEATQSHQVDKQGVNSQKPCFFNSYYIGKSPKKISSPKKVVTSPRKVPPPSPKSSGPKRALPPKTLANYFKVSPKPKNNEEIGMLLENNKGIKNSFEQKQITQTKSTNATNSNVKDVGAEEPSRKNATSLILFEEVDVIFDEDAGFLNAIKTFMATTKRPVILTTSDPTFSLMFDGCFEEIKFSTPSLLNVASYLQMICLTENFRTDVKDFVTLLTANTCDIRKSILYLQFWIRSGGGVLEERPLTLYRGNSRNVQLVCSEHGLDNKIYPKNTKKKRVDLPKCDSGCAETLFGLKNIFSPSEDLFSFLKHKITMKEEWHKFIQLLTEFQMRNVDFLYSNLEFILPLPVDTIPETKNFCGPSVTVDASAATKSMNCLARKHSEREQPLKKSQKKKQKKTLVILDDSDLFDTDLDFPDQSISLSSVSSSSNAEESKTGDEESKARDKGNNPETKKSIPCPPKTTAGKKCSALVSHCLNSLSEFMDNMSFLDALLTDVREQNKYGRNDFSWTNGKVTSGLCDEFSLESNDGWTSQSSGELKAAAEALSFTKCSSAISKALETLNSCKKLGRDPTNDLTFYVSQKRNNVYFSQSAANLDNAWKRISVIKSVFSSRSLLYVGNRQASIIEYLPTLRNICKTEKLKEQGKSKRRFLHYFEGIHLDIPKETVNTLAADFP
Test: Validation screen for small molecules that inhibit ELG1-dependent DNA repair in human embryonic kidney (HEK293T) cells expressing luciferase-tagged ELG1 (AID 493107);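 further: cells co-treated with the DNA-damaging agent 5-fluorouridine alongside compound; inhibitors lower the ELG1-luciferase luminescence signal; nearly all actives have a fitted effect of over 70% in size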
Details: HEK293T ELG1-luciferase level, luminescence, 5-fluorouridine co-treatment, 16 h; series mostly up to 46.1 µM
Inconclusive results are not listed. Active and inactive are the calls of the source. Calls follow the shape of the dose curve; as a rule, active = well fitted inhibition curve with a large enough effect; inconclusive = small, poorly fitted or top-dose-only effect, or effect the other way; inactive = flat fitted curve, though single readings scatter.
Respond using exactly one of the listed classes: label 1 = active, label 0 = inactive

Illustrative cases are given below, each with its answer.
molecule	group-label
O=C1Nc2ccc(I)cc2/C1=C/c1cc(Br)c(O)c(Br)c1	label 0
Nc1ncnc2c1ncn2C1CCCC1	label 0
O=c1[nH]c(=S)[nH]c(-c2ccccc2)c1Cc1c(O)ccc2ccccc12	label 0
NC(N)=NC(N)=Nc1cccc(Cl)c1	label 0

q: Outcome logged for COc1ccccc1N1CCN(CCCCNC(=O)c2ccc3ccccc3c2)CC1 in this assay:
a: label 0

q: What would you report for Cn1c(=O)[nH]c2ncn(C)c2c1=O ?
a: label 0
